- measured-target: N6-adenosine-methyltransferase catalytic subunit (Homo sapiens, UniProt Q86U44)
- Sequence (Q86U44 whole entry): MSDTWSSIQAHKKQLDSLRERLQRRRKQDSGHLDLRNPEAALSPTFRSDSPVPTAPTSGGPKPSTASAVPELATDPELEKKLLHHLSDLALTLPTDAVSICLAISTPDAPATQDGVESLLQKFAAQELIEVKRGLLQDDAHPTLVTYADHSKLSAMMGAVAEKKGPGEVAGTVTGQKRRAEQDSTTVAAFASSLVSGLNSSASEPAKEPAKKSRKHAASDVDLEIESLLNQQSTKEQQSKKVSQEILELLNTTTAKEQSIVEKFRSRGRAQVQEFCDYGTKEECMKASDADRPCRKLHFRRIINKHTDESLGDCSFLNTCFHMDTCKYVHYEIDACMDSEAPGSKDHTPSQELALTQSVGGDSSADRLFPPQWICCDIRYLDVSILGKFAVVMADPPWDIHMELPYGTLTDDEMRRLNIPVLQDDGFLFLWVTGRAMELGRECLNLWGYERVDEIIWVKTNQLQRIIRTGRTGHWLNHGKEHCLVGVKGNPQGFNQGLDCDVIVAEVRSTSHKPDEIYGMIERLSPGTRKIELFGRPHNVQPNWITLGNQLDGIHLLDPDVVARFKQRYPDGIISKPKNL
- assay-remarks: Inhibition of full length His-tagged METTL3 (unknown origin) co-expressed with full length FLAG-tagged METTL14 in baculovirus expression system preincubated using 5'P-uacacucgaucuggacuaaagcugcuc-3' as substrate and SAM as cosubstrate pre-incubated for 10 mins followed by addition of substrates and measured after 60 mins by RapidFire mass spectrometry (RF/MS) analysis
metric: IC50

Worked cases, answers included:
{"columns": ["query-smiles", "IC50"],
 "data": [
  ["Nc1ncnc2c1c(Br)cn2[C@@H]1O[C@H](/C=C/CCCNCC23CC(F)(C2)C3)[C@@H](O)[C@H]1O", "< 6 nM"],
  ["Nc1ncnc2c1c(Br)cn2[C@@H]1O[C@H](/C=C/CCCNCC2CC(F)(F)C2)[C@@H](O)[C@H]1O", "22.7 nM"]
]}

Entry `Nc1ncnc2c1c(Br)cn2[C@@H]1C[C@H](c2ccc3cc(CNCC45CC(F)(C4)C5)[nH]c3c2)[C@@H](O)[C@H]1O` : reported IC50 = ? < 6 nM
